Data provenance: paper PMC10407628

- Tested target: Bcl-xLΔC25 (human, UniProt Q07817-1 1-208)
- Sequence (Q07817 1-208, stated change not applied): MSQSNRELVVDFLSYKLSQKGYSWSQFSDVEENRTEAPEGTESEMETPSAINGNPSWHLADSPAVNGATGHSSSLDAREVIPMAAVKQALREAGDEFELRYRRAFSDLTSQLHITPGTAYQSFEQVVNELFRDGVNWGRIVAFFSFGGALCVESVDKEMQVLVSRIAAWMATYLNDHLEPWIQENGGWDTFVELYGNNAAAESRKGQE
- Method notes: fluorescence polarisation
Ends that are not written are not given here. * marks the point of attachment. FITC = O=C1OC2(c3ccc(O)cc3Oc3cc(O)ccc32)c2ccc(NC(=S)*)cc21
Outcome measure: Kd (nM)

>  <Binder>
{FITC}-HQAEVQIARKLQCIADQFHRLHVQQ [FITC-Bmf BH3]

>  <Measurement unit>
nM

>  <Endpoint value>
5.1

$$$$
